Tested on: HMLE_sh_eGFP viability, CellTiter-Glo luminescence, 72 h
Assay: cytotoxicity in HMLE control line with eGFP shRNA, dose response, counter-screen for HMLE_sh_ECad selective toxicity project, cell-based, HMLE_sh_eGFP, luminescence (AID 463074);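 note: counterscreen control line to flag general toxicity for the HMLE_sh_ECad screen; potency for loss of viability as luminescence drops below DMSO wells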
What AC50 was measured for each of the following?

For every record below, what is its AC50?
1. O=C(Nc1ccc(Cl)cc1)Nc1nnc(-c2ccncc2)s1
2. O=Nc1c(O)n(Cc2ccc(Cl)c(Cl)c2)c2ccccc12
3. O=C(CCc1ccc(Oc2cc([N+](=O)[O-])cc([N+](=O)[O-])c2)cc1)N1CCCCCC1
4. COc1ccc(-c2sc3ccc(N4CCOCC4)cc3c2C#CC(C)(C)O)cc1
5. COc1cc2cnc(-c3ccccc3)c(-c3cccc(C(F)(F)F)c3)c2cc1OC

1: 2.42 µM; 2: 6.85 µM; 3: 8.85 µM; 4: 1.3 µM; 5: 6.67 µM

====

System: HMLE_sh_eGFP viability, CellTiter-Glo luminescence, 72 h
Assay: cytotoxicity in HMLE control line with eGFP shRNA, dose response, counter-screen for HMLE_sh_ECad selective toxicity project, cell-based, HMLE_sh_eGFP, luminescence (AID 463074);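 note: counterscreen control line to flag general toxicity for the HMLE_sh_ECad screen; potency for loss of viability as luminescence drops below DMSO wells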
Activity calls are given as the source filed them.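 The calls were made as follows: active = AC50 no more than tenfold above the top dose tested, or full inhibition at every dose with a flat fit (cut at about 19 µM in these data); inconclusive = flat curve fit with inhibition between 30% and 70%, or poor fit; inactive = AC50 more than tenfold above the top dose tested.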
Write down the outcome that applies. Available outcomes: YES (active), NO (inactive)

molecule | cat
Cc1cccc(Nc2nc(N)c([N+](=O)[O-])c(N3CC(C)CC(C)C3)n2)c1 (stereo not given) | YES
CN[C@H]1CCc2cc(OC)c(OC)c(OC)c2-c2ccc(N(C)CC(OC)OC)c(=O)cc21 | YES
CCC(C)n1ncn(-c2ccc(N3CCN(c4ccc(O)cc4)CC3)cc2)c1=O (stereo not given) | YES
O=C(NC1CONC1=O)OCC(Cl)(Cl)Cl (stereo not given) | NO
COc1ccc(-n2sc3c(c2=S)-c2cc(OC)ccc2NC3(C)C)cc1 | YES

Hey, what did the test say about OC(CN1CCN(c2ccccn2)CC1)Cn1c2ccc(Cl)cc2c2cc(Cl)ccc21 (stereo not given) ?
YES

// param item: Cc1ccc(C(C)C)c(OCc2nn(CC(=O)c3ccc(OC(F)F)cc3)c3[n+]2CCCCC3)c1 ; yields the recorded call
YES

I'd appreciate the recorded outcome for C[C@@H]1O[C@@H](O[C@H]2C[C@@H](O)[C@]3(CO)[C@H]4[C@H](O)C[C@]5(C)[C@@H](C6COC(=O)C6)CC[C@]5(O)[C@@H]4CC[C@]3(O)C2)[C@H](O)[C@H](O)[C@H]1O (stereo not given in full) from this test.
YES

Which outcome was assigned to Cn1c(=O)c(C(=O)NNC(=O)c2ccc(Br)cc2)c(O)c2ccccc21 in this test?
YES

Kindly provide the recorded test outcome for the following molecule: Clc1ccc(C(Cn2ccnc2)OCc2csc3c(Cl)cccc23)c(Cl)c1 (stereo not given)
YES

Fill in: this test's call for O=c1c(Cl)c(NCc2ccccc2Cl)cnn1C12CC3CC(CC(C3)C1)C2 is ___
YES

For FC(F)(F)c1nnc(-c2ccccc2)nc1Sc1ccc(Cl)cc1 , what call appears in the results of this test?
YES

Tell me the assay call for COc1cccc(Nc2nc(-c3ccccc3)nc3ccccc23)c1 please.
YES

Hi, sorry to bother you, what did the test record for Cc1ccc(C(=O)CSC2=C(C#N)C(c3ccco3)C3=C(CC(C)(C)CC3=O)N2)cc1 (stereo not given) ?
YES

Dear colleague, could you share the recorded outcome for Cc1sc2ncnc(N3CCN(CCOc4ccc(Cl)cc4)CC3)c2c1C when you have a moment?
YES

Test call for this molecule, please: O=C(NCCCN1CCOCC1)c1ccc(Sc2ccc(Br)cc2)c([N+](=O)[O-])c1
YES

Per the assay record, what outcome was assigned to C[C@]12CC[C@H](O)C[C@H]1CC[C@@H]1C2CC[C@]2(C)[C@@H](C3=CC(=O)OC3)[C@@H](O)C[C@]12O (stereo not given in full) ?
YES
